# target.or.system: CD40c-TRAF2 interaction (Homo sapiens, UniProt Q12933)
# Construct: 1 and 2, respectively; CD40c: Escherichia coli BL21 (DE3)
# Sequence (Q12933 with tags, fused parts or gaps): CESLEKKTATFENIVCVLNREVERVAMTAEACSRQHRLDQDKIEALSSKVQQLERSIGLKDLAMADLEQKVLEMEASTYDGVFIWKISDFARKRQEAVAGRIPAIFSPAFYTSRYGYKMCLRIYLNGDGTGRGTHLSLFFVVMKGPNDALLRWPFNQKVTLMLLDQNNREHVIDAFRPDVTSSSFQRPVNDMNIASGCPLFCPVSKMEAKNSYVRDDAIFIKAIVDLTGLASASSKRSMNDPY
# experiment: Flashplate assay of CD40c-TRAF2 interaction (biotin-CD40c, TRAF2(NC)-CA21, 125I-CA21 Fab)
# experimental.parameters: 0.44 μg/ml biotin-CD40c, 5 μg/ml TRAF2(NC)-CA21, peptide preincubated with TRAF2(NC)-CA21; read-out: IC50 for inhibition of CD40c-TRAF2 interaction
Residues, ends and D or L forms follow the SMILES beside them.
observed.property: IC50

Exercise: What does the record list as IC50 for CC[C@H](C)[C@H](NC(C)=O)C(=O)N[C@@H](CCC(N)=O)C(=O)N[C@@H](CCC(=O)O)C(=O)N[C@H](C(N)=O)[C@@H](C)O [IQET, AcIQET-NH2] (Ac-IQET-NH2) ?
Key: ~140 µM
